Give switch fluorescence ratio for every item shown.
# Test system: ATP;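 also: ATP exposure 15 min at 22 °C before imaging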
# assay: switch fluorescence ratio, 500 uM ATP over buffer (Cy3 cluster intensity, sum of 5 cycles each) (fold (ratio)); higher = stronger signal-on switching upon ATP binding; sequences stand for … in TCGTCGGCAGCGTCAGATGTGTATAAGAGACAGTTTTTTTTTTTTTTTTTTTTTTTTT…TC
# condition_summary: aptamer strand: ATP DNA aptamer (quencher-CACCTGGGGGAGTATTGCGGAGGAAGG + anchor), 100 nM annealed; ATP concentration: 500 uM
Enter the number alone.

# lookup: switch fluorescence ratio of `GTTTGGCGTA`
0.967

Given the sequence `CCGCATGGGG` , what is its reported switch fluorescence ratio?
1.49

Fill blank: measured switch fluorescence ratio of the sequence `TGCTTGGCTA` is ____.
0.98

Recorded switch fluorescence ratio for `GCACTAAACT` , please?
1.05

# query: switch fluorescence ratio of entry `TTATCGGTAT`
1

Need switch fluorescence ratio of `AAAGAGGAGA` , thanks.
1.02

// query switch fluorescence ratio value for entry `GGGGTTGTGG`
0.988

State the recorded switch fluorescence ratio for this entry: `GAATTTGAGT`
0.974

State the recorded switch fluorescence ratio for this entry: `GCGGGGGGAT`
1.02

Param item = `TTGTATACCT` ; retrieve measured switch fluorescence ratio.
1.17

What switch fluorescence ratio value was documented for this sequence, `CTGGTTACAC` ?
1.03

Can you look up the measured switch fluorescence ratio of `ATCGGAACCT` for me?
2.15

Consider the sequence `CATTTTGTGC` and give its measured switch fluorescence ratio.
0.988

Field request: switch fluorescence ratio | item: `AAGCCCCTTG`
0.992

Name the reported switch fluorescence ratio value associated with the sequence `TAGTAATGGT`
1.03

Quick check: switch fluorescence ratio of `CACCACGGCA` ?
1.1

State the recorded switch fluorescence ratio for this entry: `CGGGTAATTC`
1.13

# switch fluorescence ratio lookup, item `CGAATGTTCG`
0.998

Value lookup for switch fluorescence ratio; key = `TGGCCGGTTT`
1.01

Sample `TGGGGATCAC` — what was its switch fluorescence ratio?
1.01

I'd like to know its switch fluorescence ratio. The sequence in question is `TTTCGCACTG`
1.1

What value of switch fluorescence ratio has been recorded for this entry: `TCATTTATGT`
0.966

# lookup: switch fluorescence ratio of `CCCGGTCGGC`
0.983

Reported switch fluorescence ratio, sequence `TGACTAGGGG` : ____
0.949

Dear colleague, I am looking for the recorded switch fluorescence ratio of the following sequence: `GCTTTTGGGC`
0.963

Record request: switch fluorescence ratio value, item `CCGAAGGGTA`
1.1

Which measured switch fluorescence ratio value corresponds to `TTTTTCTTTT` ?
0.993

Any idea what its switch fluorescence ratio is? The sequence is `TAGATTCGTT`
0.991

// lookup switch fluorescence ratio for `TATCGTATTC`
0.97

Would you kindly share the measured switch fluorescence ratio for `AGAGTATTAA` ?
0.982

If you can, please state the reported switch fluorescence ratio value of `TGGGGATTGT` .
0.968

Please report the recorded switch fluorescence ratio for `CCGGAGGGGT` .
1.38

Which switch fluorescence ratio is listed for `TTATTTTGGT` ?
1.01

Can you look up the measured switch fluorescence ratio of `GATTTAAGTT` for me?
0.999

Suppose we examine the sequence `GTTTTTACGG` ; what switch fluorescence ratio value has been reported?
1.04

If you can, please state the reported switch fluorescence ratio value of `ATATAGGCTA` .
0.995

Any idea what switch fluorescence ratio was measured for `TAAGTGAGAA` ?
0.983

Data request, read-out switch fluorescence ratio, for `CAGGATGCCC`
0.987

Dear colleague, I am looking for the recorded switch fluorescence ratio of the following sequence: `AGGTTAACAG`
0.991

Entry under review: `GTTGTTTTTA` . Reported switch fluorescence ratio?
0.987

Sample `TCGTCCTTTT` — what was its switch fluorescence ratio?
0.976

Reported switch fluorescence ratio for `TGGATCCCCA` : what is it?
1.06

Report switch fluorescence ratio for `TTAAAGTTGT` please.
1.03

switch fluorescence ratio lookup needed for `GGGGAGTGCA` , thanks.
1

Requested read-out: switch fluorescence ratio. Entry: `GGACCAAGGT`
1.01

I have this sequence here, `TACCTATTGG` , and I need its recorded switch fluorescence ratio.
0.997

# get_value(readout='switch fluorescence ratio', item= `CGGGCCACTT` )
1.01

// query switch fluorescence ratio value for entry `CAGTTGAGAA`
1.02

What value of switch fluorescence ratio has been reported for the following sequence? `AAAGGTTGGG`
0.992

Fill in: switch fluorescence ratio of `CGTAGTGAAG` is ___
1.03

For the sequence shown here, `GCTGGGGGGG` , give the reported switch fluorescence ratio.
1.02

Record request: switch fluorescence ratio value, item `GTTTTTTGGT`
0.982

Which value of switch fluorescence ratio has been reported for `AAAGCAATTG` in the records?
1.08

# query: switch fluorescence ratio of entry `TTCATGCCTG`
1.12

What does the data say about its switch fluorescence ratio? Entry: `CGGGATAGGG`
0.977

Param item = `GGACGTTTTG` ; retrieve measured switch fluorescence ratio.
0.98

# query: switch fluorescence ratio of entry `TTTTCTCTCA`
1.01

GET /values?readout=switch fluorescence ratio&item= `GAAATGTAGG`
0.995

Which switch fluorescence ratio is listed for `TTGACATGGG` ?
1

Endpoint output: switch fluorescence ratio of `TTTAGATTGG` . Value?
0.995

I'd like to know its switch fluorescence ratio. The sequence in question is `TCGTTCGGCA`
1.06

I have this sequence here, `TATTATGGGG` , and I need its recorded switch fluorescence ratio.
1.02

Look up switch fluorescence ratio for this sequence: `GCTTGTAGGC`
0.994

# switch fluorescence ratio lookup, item `AGAAGGTGTT`
1.07

Returns the measured switch fluorescence ratio for the input sequence. Input: `CGTTTTGTGC`
1.03

# lookup: switch fluorescence ratio of `TGTGTGGGGT`
0.975

Requested read-out: switch fluorescence ratio. Entry: `TCAAGTTTGG`
1.02

Could you tell me which switch fluorescence ratio is on file for `ACTCTTATCA` ?
1.01

Could you share which switch fluorescence ratio value was measured for `TTTTGGTGGG` ?
0.997

# lookup: switch fluorescence ratio of `TTTGTGGCAG`
0.991

What value of switch fluorescence ratio has been recorded for this entry: `CTGGTACAGA`
0.97

May I ask what switch fluorescence ratio has been recorded for `AGATTGCCGT` ?
1.01

Request the reported switch fluorescence ratio associated with `TTGCTGTTTG`
1

Name the reported switch fluorescence ratio value associated with the sequence `AGTTAGTGGA`
0.992

What switch fluorescence ratio value was documented for this sequence, `TACGTGCATT` ?
1.05
